# target of assay: Vg5/Vd2 T cell receptor on SKW3 cells (UniProt A0JD36)
# Sequence (A0JD36 20-115): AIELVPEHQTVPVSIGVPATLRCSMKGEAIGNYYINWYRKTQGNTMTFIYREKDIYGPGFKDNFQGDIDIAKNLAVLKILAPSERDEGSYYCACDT
# procedure text: flow cytometry, dose-response binding at 37 C on SKW3 cells expressing Vg5/Vd2
quantity kind: Max. Activity (fold over background)

binder	result
VG9B98 (antibody, human IgG1, kappa, V domains shown) VH: EVQLVQSGGDLVKSGGSLRLSCAASGFTFSSYSMYWVRQAPGKGLEWVSSIGSSSTYIFYADSVKGRFTISRDNAMTSLYLQMNRLGAEDSAVYYCARDGELGPFEYWGQGTLVTVSS VL: EIVLTQSPGTLSLSPGERATLSCRASQSVSTSYLAWFQQKPGQAPRLLIFGTSSRATGIPDRFSGSGSGTDFTLTISRLEPEDFAVYHCLQYGRSPLTFGGGTKVDIKR	2.47
VG9B430 (antibody, human IgG1, kappa, V domains shown) VH: EVQLLESGGGLVKPGGSLRLSCSASGFTFSSYDMNWVRQAPGKGLEWVSSISSSSSYIYYADSVKGRFTISRDNAKNSLYLQMNSLRAEDTAVYHCARDVGVTTDYYYYGMDVWGQGTMVTVSS VL: EIVLTQSPGTLSLSPGDRATLSCRASQSVASSYLAWYQQKPGQSPRLLIYGASSRATGIPDRFSGSGSGTDFTLTISRLEPEDFAVYYCQQYGSSPPYTFGQGTKLEIKR	1.49
VG9B472 (antibody, human IgG1, kappa, V domains shown) VH: QVQLVESGGGLVKPGGSLRLSCAASGFTFSHYDMNWVRQAPGKGLEWVSSISSSSSYIFYADSVKGRFTISRDNAKNSLLLQMNSLRAEDTAVYHCARDRGVGDTSDYYSFGLDVWGQGTTVTVSS VL: EIVLTQSPSSLSASVGDRVTITCRASQGIATYLAWYQQKPGKVPNLLIYAASTLQSGVPSRFSGSGSGTDFTLTISSLQPEDVATYYCQKYNSAPPWTFGQGTKVEIKR	2.22
VG9B58 (antibody, human IgG1, kappa, V domains shown) VH: QVQLQESGPGLVKPSETLSLTCTVSGGSIKSSYWTWIRQPPGKGLEWIGYMFYLGSTNYNPSLKSRVTMSIDTSRNQFSLKLSSVTAADTAVYYCSRERPVLDAFDIWGQGTMVTVSS VL: DIQMTQSPSAMSASVGDRVTITCRASQDITNYLAWFQQKPGKVPKRLIYAASSLQGGVPSRFSGSGSGTEFTLTISSLQPEDFSTYYCLQHDTYPYTFGQGTKVDIKR	1.49
